target: OPRK (Homo sapiens, UniProt P41145); assay: cell-based
Sequence (P41145 whole entry): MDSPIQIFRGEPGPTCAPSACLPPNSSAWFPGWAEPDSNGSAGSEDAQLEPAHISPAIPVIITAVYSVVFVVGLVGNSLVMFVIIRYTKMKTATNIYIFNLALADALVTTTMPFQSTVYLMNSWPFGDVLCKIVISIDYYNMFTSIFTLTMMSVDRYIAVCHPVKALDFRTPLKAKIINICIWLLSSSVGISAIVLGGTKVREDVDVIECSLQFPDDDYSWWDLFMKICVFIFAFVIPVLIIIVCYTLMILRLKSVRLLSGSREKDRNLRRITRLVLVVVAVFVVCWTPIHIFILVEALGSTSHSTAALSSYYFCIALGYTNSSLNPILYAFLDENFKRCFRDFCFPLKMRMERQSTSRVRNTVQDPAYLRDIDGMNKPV
Quick reference for IC50 among some compounds
Property name: IC50 (µM)

{"Compound": "Cc1cccc(-c2[nH]c(Cc3cccc(C(N)=O)c3)nc2-c2ccc3nccnc3c2)n1", "Property name": "IC50", "Numeric readout": 2.06}
{"Compound": "COc1ccc(NC(=O)Cn2c(=O)n(-c3ccc(CC(=O)NCC4CCCO4)cc3)c(=O)c3ccccc32)c(OC)c1 (stereo not drawn)", "Property name": "IC50", "Numeric readout": 2.06}

----------
molecular target: OPRM (Homo sapiens); test: cell-based
Sequence (P35372 whole entry): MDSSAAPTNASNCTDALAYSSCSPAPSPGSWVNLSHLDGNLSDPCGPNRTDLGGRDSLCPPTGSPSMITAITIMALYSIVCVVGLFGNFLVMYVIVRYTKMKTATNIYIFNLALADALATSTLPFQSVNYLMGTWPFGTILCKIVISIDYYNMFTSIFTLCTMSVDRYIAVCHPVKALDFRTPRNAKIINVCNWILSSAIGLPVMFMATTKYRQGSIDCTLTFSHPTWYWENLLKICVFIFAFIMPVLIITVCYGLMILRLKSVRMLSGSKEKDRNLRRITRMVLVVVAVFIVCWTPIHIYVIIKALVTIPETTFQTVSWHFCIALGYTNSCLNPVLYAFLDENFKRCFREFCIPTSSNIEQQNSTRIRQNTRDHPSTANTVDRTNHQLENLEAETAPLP

{"Compound": "Nc1ncnc2c1ncn2[C@@H]1O[C@@H]2COP(O)(=S)O[C@H]2[C@H]1O (stereo partly shown) [NCGC00485585-01, Adenosine 3’,5’-cyclothiophosphate]", "IC50": "40 to 70 nM"}
